protocol.summary: in vitro
condition.details: PAMPA, pH 7.4, PAMPA Pe_avg
Positions of bridges follow the written chain, without caps; N, C: chain ends. Non-standard residues stand in square brackets, D forms with d. Residues, ends and D or L forms follow the SMILES beside them. NMeC = CN[C@@H](CS)C(=O)O; NMeA = CN[C@@H](C)C(=O)O; dAbu = CC[C@@H](N)C(=O)O; dNMeA = CN[C@H](C)C(=O)O; Abu = CC[C@H](N)C(=O)O; Nleu = CC(C)CNCC(=O)O; NEtG = CCNCC(=O)O
Reported Papp at 10 µM values are given for each entry in this list.
Give the value, in units of nm/s, as a plain number.

- CCOC(=O)[C@@H]1CSCC(=O)N[C@@H](CC)C(=O)N(C)[C@@H](C)C(=O)N[C@@H](CC(C)C)C(=O)N2CCC[C@@H]2C(=O)N(CC(C)C)CC(=O)N[C@H](CC(C)C)C(=O)N(C)[C@@H](C)C(=O)N[C@@H](CC(C)C)C(=O)N1C [JF206_ADL_LLDL_Isobutyl] ({CH2CO}-[Abu][NMeA]L[dP][Nleu][dL][NMeA]L[NMeC]-OEt; thioether N-9): 2.29
- CCOC(=O)[C@@H]1CSCC(=O)N[C@@H](CC)C(=O)N(C)[C@@H](C)C(=O)N[C@H](CC(C)C)C(=O)N2CCC[C@@H]2C(=O)N(CC)CC(=O)N[C@@H](CC(C)C)C(=O)N(C)[C@@H](C)C(=O)N[C@@H](CC(C)C)C(=O)N1C [JF206_ADL_LDLL_Ethyl] ({CH2CO}-[Abu][NMeA][dL][dP][NEtG]L[NMeA]L[NMeC]-OEt; thioether N-9): 0.13
- CCOC(=O)[C@@H]1CSCC(=O)N[C@H](CC)C(=O)N(C)[C@@H](C)C(=O)N[C@@H](CC(C)C)C(=O)N2CCC[C@H]2C(=O)N(CC(C)C)CC(=O)N[C@H](CC(C)C)C(=O)N(C)[C@H](C)C(=O)N[C@@H](CC(C)C)C(=O)N1C [JF206_ALD_DLDD_Isobutyl] ({CH2CO}-[dAbu][NMeA]LP[Nleu][dL][dNMeA]L[NMeC]-OEt; thioether N-9): 0.38
- CCOC(=O)[C@@H]1CSCC(=O)N[C@@H](CC)C(=O)N(C)[C@@H](C)C(=O)N[C@@H](CC(C)C)C(=O)N2CCC[C@H]2C(=O)N(CC(C)C)CC(=O)N[C@@H](CC(C)C)C(=O)N(C)[C@H](C)C(=O)N[C@@H](CC(C)C)C(=O)N1C [JF206_ALL_LLLD_Isobutyl] ({CH2CO}-[Abu][NMeA]LP[Nleu]L[dNMeA]L[NMeC]-OEt; thioether N-9): 1.39
- CCOC(=O)[C@@H]1CSCC(=O)N[C@H](CC)C(=O)N(C)[C@@H](C)C(=O)N[C@H](CC(C)C)C(=O)N2CCC[C@H]2C(=O)N(CC)CC(=O)N[C@@H](CC(C)C)C(=O)N(C)[C@@H](C)C(=O)N[C@@H](CC(C)C)C(=O)N1C [JF206_ALD_DDLL_Ethyl] ({CH2CO}-[dAbu][NMeA][dL]P[NEtG]L[NMeA]L[NMeC]-OEt; thioether N-9): 0.0548

Lab note: next compound to report on.
The recorded Papp at 10 µM for entry CCOC(=O)[C@@H]1CSCC(=O)N[C@@H](CC)C(=O)N(C)[C@@H](C)C(=O)N[C@H](CC(C)C)C(=O)N2CCC[C@H]2C(=O)N(CC)CC(=O)N[C@H](CC(C)C)C(=O)N(C)[C@H](C)C(=O)N[C@@H](CC(C)C)C(=O)N1C [JF206_ALL_LDDD_Ethyl] ({CH2CO}-[Abu][NMeA][dL]P[NEtG][dL][dNMeA]L[NMeC]-OEt; thioether N-9) equals 6.23

###

protocol.summary: in vitro
condition.details: PAMPA, pH 7.4, PAMPA Pe_avg
Positions of bridges follow the written chain, without caps; N, C: chain ends. Non-standard residues stand in square brackets, D forms with d. Residues, ends and D or L forms follow the SMILES beside them. NMeC = CN[C@@H](CS)C(=O)O; NMeA = CN[C@@H](C)C(=O)O; dAbu = CC[C@@H](N)C(=O)O; dNMeA = CN[C@H](C)C(=O)O; Abu = CC[C@H](N)C(=O)O; Nleu = CC(C)CNCC(=O)O; NEtG = CCNCC(=O)O
Reported Papp at 10 µM values are given for each entry in this list.
Give the value, in units of ×10⁻⁶ cm/s, as a plain number.

See these solved cases before continuing.
• CCOC(=O)[C@@H]1CSCC(=O)N[C@@H](CC)C(=O)N(C)[C@@H](C)C(=O)N[C@@H](CC(C)C)C(=O)N2CCC[C@H]2C(=O)N(CC)CC(=O)N[C@H](CC(C)C)C(=O)N(C)[C@@H](C)C(=O)N[C@@H](CC(C)C)C(=O)N1C [JF206_ALL_LLDL_Ethyl] ({CH2CO}-[Abu][NMeA]LP[NEtG][dL][NMeA]L[NMeC]-OEt; thioether N-9) = 0.003
• CCOC(=O)[C@@H]1CSCC(=O)N[C@@H](CC)C(=O)N(C)[C@@H](C)C(=O)N[C@H](CC(C)C)C(=O)N2CCC[C@H]2C(=O)N(CC)CC(=O)N[C@@H](CC(C)C)C(=O)N(C)[C@@H](C)C(=O)N[C@@H](CC(C)C)C(=O)N1C [JF206_ALL_LDLL_Ethyl] ({CH2CO}-[Abu][NMeA][dL]P[NEtG]L[NMeA]L[NMeC]-OEt; thioether N-9) = 0.015
• CCOC(=O)[C@@H]1CSCC(=O)N[C@H](CC)C(=O)N(C)[C@@H](C)C(=O)N[C@H](CC(C)C)C(=O)N2CCC[C@H]2C(=O)N(CC)CC(=O)N[C@H](CC(C)C)C(=O)N(C)[C@@H](C)C(=O)N[C@@H](CC(C)C)C(=O)N1C [JF206_ALD_DDDL_Ethyl] ({CH2CO}-[dAbu][NMeA][dL]P[NEtG][dL][NMeA]L[NMeC]-OEt; thioether N-9) = 0.18
• CCOC(=O)[C@@H]1CSCC(=O)N[C@H](CC)C(=O)N(C)[C@@H](C)C(=O)N[C@H](CC(C)C)C(=O)N2CCC[C@H]2C(=O)N(CC(C)C)CC(=O)N[C@@H](CC(C)C)C(=O)N(C)[C@H](C)C(=O)N[C@@H](CC(C)C)C(=O)N1C [JF206_ALD_DDLD_Isobutyl] ({CH2CO}-[dAbu][NMeA][dL]P[Nleu]L[dNMeA]L[NMeC]-OEt; thioether N-9) = 0.063
• CCOC(=O)[C@@H]1CSCC(=O)N[C@@H](CC)C(=O)N(C)[C@@H](C)C(=O)N[C@H](CC(C)C)C(=O)N2CCC[C@@H]2C(=O)N(CC)CC(=O)N[C@H](CC(C)C)C(=O)N(C)[C@H](C)C(=O)N[C@@H](CC(C)C)C(=O)N1C [JF206_ADL_LDDD_Ethyl] ({CH2CO}-[Abu][NMeA][dL][dP][NEtG][dL][dNMeA]L[NMeC]-OEt; thioether N-9) = 0.177

The recorded Papp at 10 µM for entry CCOC(=O)[C@@H]1CSCC(=O)N[C@H](CC)C(=O)N(C)[C@@H](C)C(=O)N[C@H](CC(C)C)C(=O)N2CCC[C@H]2C(=O)N(CC(C)C)CC(=O)N[C@@H](CC(C)C)C(=O)N(C)[C@@H](C)C(=O)N[C@@H](CC(C)C)C(=O)N1C [JF206_ALD_DDLL_Isobutyl] ({CH2CO}-[dAbu][NMeA][dL]P[Nleu]L[NMeA]L[NMeC]-OEt; thioether N-9) equals 0.075

The recorded Papp at 10 µM for entry CCOC(=O)[C@@H]1CSCC(=O)N[C@@H](CC)C(=O)N(C)[C@@H](C)C(=O)N[C@@H](CC(C)C)C(=O)N2CCC[C@@H]2C(=O)N(CC(C)C)CC(=O)N[C@H](CC(C)C)C(=O)N(C)[C@H](C)C(=O)N[C@@H](CC(C)C)C(=O)N1C [JF206_ADL_LLDD_Isobutyl] ({CH2CO}-[Abu][NMeA]L[dP][Nleu][dL][dNMeA]L[NMeC]-OEt; thioether N-9) equals 0.286

The recorded Papp at 10 µM for entry CCOC(=O)[C@@H]1CSCC(=O)N[C@@H](CC)C(=O)N(C)[C@@H](C)C(=O)N[C@@H](CC(C)C)C(=O)N2CCC[C@@H]2C(=O)N(CC)CC(=O)N[C@@H](CC(C)C)C(=O)N(C)[C@H](C)C(=O)N[C@@H](CC(C)C)C(=O)N1C [JF206_ADL_LLLD_Ethyl] ({CH2CO}-[Abu][NMeA]L[dP][NEtG]L[dNMeA]L[NMeC]-OEt; thioether N-9) equals 0.326

The recorded Papp at 10 µM for entry CCOC(=O)[C@@H]1CSCC(=O)N[C@H](CC)C(=O)N(C)[C@@H](C)C(=O)N[C@@H](CC(C)C)C(=O)N2CCC[C@@H]2C(=O)N(CC)CC(=O)N[C@H](CC(C)C)C(=O)N(C)[C@@H](C)C(=O)N[C@@H](CC(C)C)C(=O)N1C [JF206_ADD_DLDL_Ethyl] ({CH2CO}-[dAbu][NMeA]L[dP][NEtG][dL][NMeA]L[NMeC]-OEt; thioether N-9) equals 0.003

The recorded Papp at 10 µM for entry CCOC(=O)[C@@H]1CSCC(=O)N[C@H](CC)C(=O)N(C)[C@@H](C)C(=O)N[C@@H](CC(C)C)C(=O)N2CCC[C@@H]2C(=O)N(CC(C)C)CC(=O)N[C@H](CC(C)C)C(=O)N(C)[C@@H](C)C(=O)N[C@@H](CC(C)C)C(=O)N1C [JF206_ADD_DLDL_Isobutyl] ({CH2CO}-[dAbu][NMeA]L[dP][Nleu][dL][NMeA]L[NMeC]-OEt; thioether N-9) equals 0.173

The recorded Papp at 10 µM for entry CCOC(=O)[C@@H]1CSCC(=O)N[C@H](CC)C(=O)N(C)[C@@H](C)C(=O)N[C@@H](CC(C)C)C(=O)N2CCC[C@H]2C(=O)N(CC(C)C)CC(=O)N[C@@H](CC(C)C)C(=O)N(C)[C@H](C)C(=O)N[C@@H](CC(C)C)C(=O)N1C [JF206_ALD_DLLD_Isobutyl] ({CH2CO}-[dAbu][NMeA]LP[Nleu]L[dNMeA]L[NMeC]-OEt; thioether N-9) equals 0.117

The recorded Papp at 10 µM for entry CCOC(=O)[C@@H]1CSCC(=O)N[C@H](CC)C(=O)N(C)[C@@H](C)C(=O)N[C@H](CC(C)C)C(=O)N2CCC[C@H]2C(=O)N(CC(C)C)CC(=O)N[C@H](CC(C)C)C(=O)N(C)[C@@H](C)C(=O)N[C@@H](CC(C)C)C(=O)N1C [JF206_ALD_DDDL_Isobutyl] ({CH2CO}-[dAbu][NMeA][dL]P[Nleu][dL][NMeA]L[NMeC]-OEt; thioether N-9) equals 0.556

Reference source for all entries: paper PMC10885153
